- subject.of.test: U(702-809) (human, UniProt Q00839 702-809)
- Sequence (Q00839 702-809): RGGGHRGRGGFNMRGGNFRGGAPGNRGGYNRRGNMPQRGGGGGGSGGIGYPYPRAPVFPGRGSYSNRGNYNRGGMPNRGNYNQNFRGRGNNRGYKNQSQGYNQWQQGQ
- assay.remarks: fluorescence anisotropy
reported.endpoint: pKd
Answers are plain numbers, as −log10 of the molar value.

MTRNR2L6 (structured_RNA) RNA: GCUAUACAUAUAUUGACCCAAUAAUUUGAUCAACGGAACAAGUUACCCUAGGGAUAACAGCGCAAUCCUAUUCUAGAGUCCAUAUUGACAAUAGGGUUUACGACCUCGAUGUUGGAUCAGGACAUCCUAAUGGUGUAGC; 6.15
Antisense Syncrip (structured_RNA) RNA: GAAGCUCACGCCGCUGGCAGCAAACCCGAUCCAGUUCCACUCGCCUCCGAGCGCGCUCCCGGUGCGCGCGCGCGCCCCCGCGUGACCCCCCCUUCCCUUCCCUUCCCUUCCCUCCCCUCCCUC; 5.80

For every item in the list below, what is its measured pKd?
1. Antisense MTRNR2L6 (structured_RNA) RNA: GGCUACACCAUUAGGAUGUCCUGAUCCAACAUCGAGGUCGUAAACCCUAUUGUCAAUAUGGACUCUAGAAUAGGAUUGCGCUGUUAUCCCUAGGGUAACUUGUUCCGUUGAUCAAAUUAUUGGGUCAAUAUAUGUAUAG
2. Syncrip (structured_RNA) RNA: GAGGGAGGGGAGGGAAGGGAAGGGAAGGGAAGGGGGGGUCACGCGGGGGCGCGCGCGCGCACCGGGAGCGCGCUCGGAGGCGAGUGGAACUGGAUCGGGUUUGCUGCCAGCGGCGUGAGCUUC

6.09
6.85
